Each entry below carries its reported growth.
- System: NCI/ADR-RES ovarian
- test.method.notes: NCI-60 one-dose screen, 48 h (100 = growth as untreated, 0 = no growth, -100 = all killed)
- measurement.setup: 10 µM unless noted
This is part of a sample that, as a whole, favours compounds with a hit. Of some 83,000 tested, about 20% had one in any assay.
All answers are understood in %, so give the number only.

Answered examples (7):
molecule	assayed.target	growth / %
COc1ccc2nc(Cl)c(/C=C3\CC(c4ccccc4)=NN(c4ccccc4)C3=O)cc2c1	NCI/ADR-RES ovarian	60.2
O=C1/C(=C/c2ccccn2)NC(=S)N1c1ccccc1Cl	NCI/ADR-RES ovarian	50.8
C=C(C)[C@@H]1CC[C@]2(COC(C)=O)CC[C@]3(C)[C@H](CC[C@@H]4[C@@]5(C)CCCN(C(C)=O)C(C)(C)[C@@H]5CC[C@]43C)[C@@H]12	NCI/ADR-RES ovarian	66.9
CCCCNC(=O)Oc1ccc(/C(=C(/C)Cc2ccc(OC)cc2)c2ccc(OCCN3CCCCC3)cc2)cc1	NCI/ADR-RES ovarian	81.9
Cc1n[nH]c2ccc(Br)cc2c1=O	NCI/ADR-RES ovarian	110
COc1cc(C(=O)c2c(-c3ccccc3)oc3c(OC)cccc23)cc(OC)c1OC	NCI/ADR-RES ovarian	11.9
CC(=O)OC[C@]12CC[C@@H]([C@@H](C)c3nnc(-c4ccncc4)o3)[C@@H]1[C@H]1CC[C@@H]3[C@@]4(C)CC[C@H](OC(C)=O)C(C)(C)[C@@H]4CC[C@@]3(C)[C@]1(C)CC2	NCI/ADR-RES ovarian	90.6

Note: attention shifts to another entry.
[in] Provide value of growth for this record tested with NCI/ADR-RES ovarian: N#CC1=C(N)Oc2ccc3ccccc3c2C1c1ccc([N+](=O)[O-])cc1 (stereo not drawn)
[out] 94.6

###

- System: HT29 colon
- test.method.notes: NCI-60 one-dose screen, 48 h
- measurement.setup: 10 µM unless noted
The panel holds about 83,000 compounds, 20% with a hit somewhere; the sample as a whole holds those more often. The source made the active and inactive calls. The calls were made as follows: active = growth percent below 10; inactive = the rest.
Response enum: y (active), n (inactive)

For orientation, consider the following solved cases.
COc1cccc(Nc2ncnc3cc(NC(=O)CCl)ccc23)c1 y
S=c1nc2oc(-c3ccccc3)c(-c3ccccc3)c2c(/N=C\c2ccco2)[nH]1 n
O=C(c1c[nH]c2ccccc12)c1n[nH]c(=S)n1-c1cccc(Br)c1 n
COc1ccc(C(=O)Cn2c(C(=O)c3ccc(Cl)cc3)nc3ccccc32)cc1 n
C=C1C(=O)O[C@H]2[C@H]1CC/C(COC(=O)c1ccc(C(=O)O)s1)=C\CC[C@@]1(C)O[C@@H]21 y
O=[N+]([O-])c1ccc(-c2cn3nc(-c4c[nH]c5ccccc45)sc3n2)cc1 n

[in] What was the test verdict on "C=C(C)[C@@H]1CC[C@]2(COC(C)=O)CC[C@]3(C)[C@H](CC[C@@H]4[C@@]5(C)CCCN(C(C)=O)C(C)(C)[C@@H]5CC[C@]43C)[C@@H]12" ?
[out] y

[in] Now the compound "Cn1cc(-c2csc(-c3c[nH]c4ccc(F)cc34)n2)c2ccnc(Cl)c21"
[out] n

[in] Now the compound "C#CCn1cnc2cnc(Nc3cccc(NC(=O)C=C)c3)nc21"
[out] n
